Tested on: Wolbachia pipientis
protocolDetails: Anti-Wolbachia Cell-Based Screen
Type: functional
Set-up: scale not given: in the data most compounds retested in dose-response had high values
settings: 5 µM
Out of some 48,000 compounds screened, about 13,000 (27%) showed an effect of 50% or more. The list shows a part of the results.
quantityKind: Percent Effect (%)

| compound | reportedValue |
| --- | --- |
| Cc1cc(C(=O)N2CCc3nnc(N(C)C)cc3C2)c(C)n1C1CC1 | 2.988 |
| CC(C)COc1ccccc1CN(C)C(=O)c1cc(=O)[nH]c(=O)[nH]1 | -33.98 |
| CC(NC(N)=O)C(=O)NCc1cc(Br)ccc1F (stereo not drawn) | 3.265 |
| CC(C)CN(Cc1nc2c(cnn2C)c(=O)[nH]1)C(C)C | -8.165 |
| Cc1n[nH]c(C2CN(C(=O)Cn3ccccc3=O)CCO2)n1 (stereo not drawn) | -1.768 |
| CC(=O)N1CCOC(c2ccnc(N(C)C)n2)C1 (stereo not drawn) | 93.18 |
| CN(C)CCNC(=O)c1ccc2c(-c3nccs3)noc2c1 | -16.02 |
| CCN(Cc1cccc(C)c1)Cc1nc2c(cnn2C)c(=O)[nH]1 | 145.1 |
| Cc1nc(N2CCN(C(=O)c3cccnc3)CC2)cc(-n2cccc2)n1 | 13.16 |
| CN(Cc1nc2c(cnn2C)c(=O)[nH]1)Cc1ccccc1Cl | -1.712 |
| CN(C)c1nccc(N(C)C2CCOCC2)n1 | 2.354 |
| CCN(Cc1nc2c(cnn2C)c(=O)[nH]1)Cc1ccccc1Cl | 128.5 |
| O=C(NC[C@H]1OC[C@@H](NCc2ccccn2)[C@@H]1O)c1ccncc1 | -10.69 |
| N#CCc1ccc(OCC(=O)NS(=O)(=O)c2ccc(Cl)s2)cc1 | -0.9374 |
| Cc1ccc(CN2C[C@H]3CN(C(=O)c4ccno4)CCN3C2=O)cc1 | -7.285 |
| Cc1ncsc1C(=O)N1CC[C@@H]2[C@@H](CC1)OCCN2c1cccnc1 | -15.36 |
| CN(C)c1nccc(C2CN(c3ccccc3)CCO2)n1 (stereo not drawn) | 99.49 |
| Cc1ccc(CC(=O)N2CCOC(c3nc(C(C)(C)C)n[nH]3)C2)cn1 (stereo not drawn) | 10.27 |
| CN(CCCc1ccccc1)Cc1nc2c(cnn2C)c(=O)[nH]1 | -1.148 |
| CC(C)c1csc(C2CCCN(C(=O)Cn3ccccc3=O)C2)n1 (stereo not drawn) | -10.1 |
| CC(C)CN(CCc1ccccc1)Cc1nc2c(cnn2C)c(=O)[nH]1 | 122.3 |
| COc1ccc(CN2C[C@H]3CN(C(=O)c4ccno4)CCN3C2=O)cc1 | -1.817 |
| CN1CCN(C(=O)c2cn(-c3ccc(C(F)(F)F)cn3)nn2)CC1 | -7.593 |

----------
Listed here: items and their measured Percent Effect.
Tested on: Wolbachia pipientis
protocolDetails: Anti-Wolbachia Cell-Based Screen
Format: functional
Set-up: scale not given: in the data most compounds retested in dose-response had high values
settings: 5 µM
About 13,000 (27%) of roughly 48,000 compounds showed an effect of 50% or more. Some of the results follow.

| compound | Percent Effect [%] |
| --- | --- |
| COc1cccc(OCC2CCCN(C(=O)c3ccc(N)nc3)C2)c1 (configuration not stated) | -26.62 |
| Cc1ccc(OCC(=O)Nc2cnccc2SCCCO)cc1C | -7.18 |
| Cc1cc(C)n(CC2CN(Cc3cscn3)CCO2)n1 (configuration not stated) | -9.283 |
| CCc1nc(CN2CCOC(Cn3nc(C)nc3C)C2)no1 (configuration not stated) | 5.512 |
| Cc1cc(C)n(CC2CN(Cc3nc(-c4ccoc4)no3)CCO2)n1 (configuration not stated) | 9.322 |
| Cc1cc(C2CCCN(CCc3ccc4c(c3)CCO4)C2)n[nH]1 (configuration not stated) | 104 |
| Cc1cc(C)n(CC2CN(Cc3nc(C4CC4)no3)CCO2)n1 (configuration not stated) | 104.8 |
| O=C(O)C(F)(F)F.O=C(O)C(F)(F)F.c1nc2n(c1CN1CCCCC1)CCN(C1CCOC1)CC2 (configuration not stated) | 7.057 |
| CCc1nc(CN2CCOC(Cn3nc(C)cc3C)C2)no1 (configuration not stated) | 85.61 |
| CCOCCN1CCCC(c2cc(C(N)=O)[nH]n2)C1 (configuration not stated) | -3.243 |
| CCc1n[nH]c(C2CN(Cc3nc(C4CC4)no3)CCO2)n1 (configuration not stated) | 14.51 |
| CN(C)c1ncccc1NC(=O)COC1CCCC1 | 0.222 |

----------
System: Wolbachia pipientis
protocolDetails: Anti-Wolbachia Cell-Based Screen
Format: functional
Set-up: scale not given: in the data most compounds retested in dose-response had high values
settings: 5 µM
Among all 48,000 compounds or so, about 13,000 (27%) showed an effect of 50% or more. This is one part of the list.
Listed here: items and their measured Percent Effect.
quantityKind: Percent Effect

| molecule | reportedValue |
| --- | --- |
| Cc1ncc(CN2CCCC2c2ccc(C(=O)NCc3ccoc3)s2)s1 (stereo unspecified) | 9.292% |
| O=C(NCCn1nc(-n2cncn2)ccc1=O)c1ccc(F)cc1F | 119.8% |
| COC(=O)CCC(=O)N1CCc2nc(C(=O)N3CCOCC3)sc2CC1 | -7.844% |
| Cc1ccc(C(=O)NCCCn2cncn2)c(=O)[nH]1 | 0.33% |
| Cc1ccc(C(=O)NCCn2nc(-n3cncn3)ccc2=O)c(C)c1 | 115.4% |
| CNC(=O)c1nc2c(s1)CCN(C(=O)c1cccc(OC)c1)CC2 | -8.352% |
| O=C(NCCn1nc(-n2cncn2)ccc1=O)c1ccsc1 | 90.98% |
| Cc1ccc2oc(CN3CCn4nc(CCC(=O)O)cc4C3)c(C)c2c1 | 5.001% |
| C[C@H](NC(=O)c1cnc(-c2ccccc2)nc1O)C(N)=O | -2.731% |
| Cc1nn(C)c(N(C)C)c1CNCc1cccc(Br)c1 | -4.706% |
| COc1cc(Cl)ccc1CNC(=O)N1CCC(n2cncn2)CC1 | 88.5% |

----------
Listed here: items and their measured Percent Effect.
Test system: Wolbachia pipientis
protocolDetails: Anti-Wolbachia Cell-Based Screen
Assay type: functional
Set-up: scale not given: in the data most compounds retested in dose-response had high values
settings: 5 µM
Among all 48,000 compounds or so, about 13,000 (27%) showed an effect of 50% or more. This is one part of the list.
quantityKind: Percent Effect

| compound | quantityKind | reportedValue |
| --- | --- | --- |
| Cc1nc(N2CCOCC2)nc2c1CN(C(=O)Cc1ccccn1)CC2 | Percent Effect | 6.226% |
| O=C(O)C(F)(F)F.O=C1NC2(CCN(CC3CC3)CC2)CC1c1ccccc1 (stereo not drawn) | Percent Effect | -3.708% |
| O=C1NC(c2ccccc2)=N[C@@]12CC[C@@H]1CN(CC3CCOCC3)C[C@@H]12 | Percent Effect | 10.45% |
| O=C1NC2(Cc3ccccc31)CN(CC1CCOCC1)C2 | Percent Effect | 125.6% |
| Cc1nc(N2CCCC2)nc2c1CCN(C(=O)CC1CC1)CC2 | Percent Effect | 43.96% |
| Cn1cnc(S(=O)(=O)NCC(C)(O)c2ccc3c(c2)OCO3)c1 (stereo not drawn) | Percent Effect | -0.9964% |
| Cc1nc(N2CCCC2)nc2c1CCN(C(=O)C1CCCC1)CC2 | Percent Effect | 4.07% |
| NC[C@H]1CC[C@H](C(NC(=O)CC2CCCC2)c2ccccn2)CC1 (stereo partly drawn) | Percent Effect | 151% |
| O=c1n(CC2CC2)nc(C2CCNCC2)n1Cc1ccccc1 | Percent Effect | 0.2019% |
| Cc1nc(N2CCOCC2)nc2c1CCN(C(=O)C1(C#N)CC1)CC2 | Percent Effect | -22.43% |
| O=C(Cn1cnc(NC(=O)CC2CCCC2)n1)NCc1ccccc1 | Percent Effect | -4.841% |
| Cc1cc(=O)c2ccccc2n1CC1CCNC1 (stereo not drawn) | Percent Effect | 4.531% |
| NC(=O)C(NC(=O)Cc1cnn(-c2ccccc2)n1)c1ccccc1 (stereo not drawn) | Percent Effect | -10.55% |
| Cc1oc(C(C)C)cc1C(=O)N1CCN(c2cnn(C)c(=O)c2)CC1 | Percent Effect | -13.93% |
| Cc1nc(N2CCCC2)nc2c1CCN(C(=O)N1CCCC1)CC2 | Percent Effect | 98.24% |
| Cc1nc(N2CCOCC2)nc2c1CCN(C(=O)N1CCCC1)CC2 | Percent Effect | 118.6% |
| COc1ccc2[nH]c(C[C@@H]3C[C@@H](C(C)C)[C@H](CN(C)C)C=C3C)nc2c1 | Percent Effect | -3.029% |
| O=C1NC2(Cc3ccccc31)CN(CC1CCCC1)C2 | Percent Effect | 92.98% |
| CC(C)=CCCC(C)CN1CCC(n2cc(CO)nn2)CC1 (stereo not drawn) | Percent Effect | -18.32% |
| NS(=O)(=O)NCc1cc(-c2ccc(C(F)(F)F)cc2)n[nH]1 | Percent Effect | 103.6% |
| O=C1NC2(Cc3ccccc31)CN(CC1CCNC1)C2 (stereo not drawn) | Percent Effect | 109.8% |
| Cc1ccc(NC(=O)CNC(C)CN2CCOCC2)c(F)c1 (stereo not drawn) | Percent Effect | 11.35% |
| Cn1cc(Br)cc1C(=O)NCC(C)(O)c1ccsc1 (stereo not drawn) | Percent Effect | -10.72% |
